Origin of measurements: patent US20250215029A1

- targetOrSystem: pY641-STAT6 in PBMC (Homo sapiens)
- Construct: Cryopreserved Peripheral Blood Mononuclear Cells (PBMC) are from AllCells; host or cells: cryopreserved PBMC
- testProtocol: MSD-pSTAT-PBMC Assay (pSTAT6, IL-4 stimulated)
- Format: cell-based
- conditionLabel: PBMC, compound 3 hrs, then 1 ng/mL IL-4 for 10 min; Table 115; read-out: STAT6
pIC50: −log10 of the molar value.
quantityMeasured: pIC50

Below: 2 compounds and their reported pIC50.
1) COCCOCC(=O)SCCOP(=O)(OCCSC(=O)COCCOC)C(F)(F)c1ccc2ccc(C(=O)N[C@H]3CCCC[C@H]4CC[C@@H](C(=O)N5C[C@@H](C#N)[C@H](c6cc[nH]c(=O)c6)C5)N4C3=O)cc2c1 (single isomer, unassigned) ... 6.00 to 7.00
2) CCCOC(=O)[C@H](C)NP(=O)(Oc1ccccc1)[C@@H](F)c1ccc2sc(C(=O)N[C@H]3CCCC[C@H]4CC[C@@H](C(=O)N5C[C@H](c6cccnc6)[C@@H](C#N)C56CC6)N4C3=O)cc2c1 (stereo partly drawn) [Compound 364] ... > 7.00

I need pIC50 for every entry listed below, if you could help.
1. CC(C)(C)C(=O)SCCOP(=O)(OCCSC(=O)C(C)(C)C)C(F)(F)c1ccc2sc(C(=O)N[C@H]3CCC[C@H]4CC[C@@H](C(=O)N5C[C@@H](c6ccccc6)[C@H](C#N)C56CC6)N4C3=O)cc2c1 (single isomer, unassigned)
2. CC(C)OC(=O)OCOP(=O)(OCCSC(=O)C(C)(C)C)C(F)(F)c1ccc2sc(C(=O)N[C@H]3CCCC[C@H]4CC[C@@H](C(=O)N5C[C@@H](C#N)[C@H](c6ccccc6)C5)N4C3=O)cc2c1 (single isomer, unassigned)
3. COCCC(=O)SCCOP(=O)(OCCSC(=O)CCOC)C(F)(F)c1ccc2sc(C(=O)N[C@H]3CCCC[C@H]4CC[C@@H](C(=O)N5C[C@@H](C#N)[C@H](c6cc[nH]c(=O)c6)C5)N4C3=O)cc2c1 (single isomer, unassigned)

Result string:
["> 7.00", "> 7.00", "6.00 to 7.00"]

For each of the compounds below, state pIC50.
1. CC(C)CC(=O)SCCOP(=O)(OCOC(=O)OC1CCOCC1)C(F)(F)c1ccc2sc(C(=O)N[C@H]3CCCC[C@H]4CC[C@@H](C(=O)N5C[C@H](c6cc[nH]c(=O)c6)[C@@H](C#N)C5)N4C3=O)cc2c1 (single isomer, unassigned)
2. CCCOC(=O)[C@H](C)NP(=O)(Oc1ccccc1)C(F)c1ccc2sc(C(=O)N[C@H]3CCCC[C@H]4CC[C@@H](C(=O)N5C[C@@H](c6ccccc6)[C@H](C#N)C56CC6)N4C3=O)cc2c1 (relative stereo)
3. CCCOC(=O)[C@H](C)NP(=O)(Oc1ccccc1)[C@@H](F)c1ccc2sc(C(=O)N[C@H]3CCC[C@H]4CC[C@@H](C(=O)N5C[C@H](c6ccc(C)cc6)[C@@H](C#N)C56CC6)N4C3=O)cc2c1 (stereo partly drawn)
4. COCCC(=O)SCCOP(=O)(OCCSC(=O)CCOC)C(F)(F)c1ccc2sc(C(=O)N[C@H]3CCC[C@H]4CC[C@@H](C(=O)N5CC(c6cccnc6)C5)N4C3=O)cc2c1
5. CCCOC(=O)[C@H](C)NP(=O)(Cc1ccc2sc(C(=O)N[C@H]3CCCC[C@H]4CC[C@@H](C(=O)N5C[C@@H](C#N)[C@H](c6ccccc6)C5)N4C3=O)cc2c1)Oc1ccccc1 (stereo partly drawn)
6. CC(C)(C)C(=O)SCCOP(=O)(OCCSC(=O)C(C)(C)C)C(F)(F)c1ccc2sc(C(=O)N[C@H]3CCC[C@H]4CC[C@@H](C(=O)N5CC(CS(C)(=O)=O)C5)N4C3=O)cc2c1

Result string:
1. > 7.00
2. > 7.00
3. > 7.00
4. 6.00 to 7.00
5. 6.00 to 7.00
6. 6.00 to 7.00

Query string: Name the reported pIC50 value associated with the compound COCC(=O)SCCOP(=O)(OCCSC(=O)COC)C(F)(F)c1ccc2sc(C(=O)N[C@H]3CCCC[C@H]4CC[C@@H](C(=O)N5C[C@@H](C#N)[C@H](c6cc[nH]c(=O)c6)C5)N4C3=O)cc2c1 (single isomer, unassigned)
Result string: 6.00 to 7.00

* * *

For each of the compounds below, state its pIC50.
- targetOrSystem: Recombinant STAT3 protein (STAT3 (G127-I722)) (Homo sapiens)
- Construct: Recombinant STAT3 protein (STAT3 (G127-I722))
- Sequence (P40763 127-722): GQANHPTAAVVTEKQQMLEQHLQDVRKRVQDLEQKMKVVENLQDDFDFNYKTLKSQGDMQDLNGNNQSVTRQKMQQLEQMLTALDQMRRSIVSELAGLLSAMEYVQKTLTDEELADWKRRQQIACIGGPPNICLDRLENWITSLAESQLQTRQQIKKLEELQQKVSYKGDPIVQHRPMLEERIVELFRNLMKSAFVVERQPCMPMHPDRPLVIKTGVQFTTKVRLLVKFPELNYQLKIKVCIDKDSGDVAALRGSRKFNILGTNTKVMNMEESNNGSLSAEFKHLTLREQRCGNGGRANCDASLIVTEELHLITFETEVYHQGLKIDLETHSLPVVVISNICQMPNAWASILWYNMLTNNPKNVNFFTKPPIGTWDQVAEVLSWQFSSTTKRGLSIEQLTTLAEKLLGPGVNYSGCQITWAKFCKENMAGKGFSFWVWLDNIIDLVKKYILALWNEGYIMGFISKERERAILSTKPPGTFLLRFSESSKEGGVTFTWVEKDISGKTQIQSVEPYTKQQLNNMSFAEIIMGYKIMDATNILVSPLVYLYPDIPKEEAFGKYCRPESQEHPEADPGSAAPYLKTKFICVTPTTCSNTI
- testProtocol: STAT3 Fluorescence Polarization (FP) Assay
- Type: binding
- conditionLabel: STAT3 (G127-I722) 25 nM, probe 5-FAM-GpYLPQTV-NH2 2 nM, 45-minute incubation; read-out: STAT3 (FP assay IC50 class)
pIC50: −log10 of the molar value.

Below, 4 compounds whose answers are already recorded.
1) C/C1=C/C[C@H](NC(=O)c2cc3cc(C(F)(F)P(=O)(O)O)ccc3s2)C(=O)N2[C@H](CC[C@H]2C(=O)N2CC(c3cnccc3C)C2)C1 [Compound 641] ... > 7.00
2) CC1C(c2cccnc2)CN1C(=O)[C@@H]1CC[C@@H]2CCC[C@H](NC(=O)c3cc4cc(C(F)P(=O)(O)O)ccc4s3)C(=O)N21 (stereo partly shown) [Compound 602] ... > 7.00
3) N#Cc1cccc(C2CN(C(=O)[C@@H]3CC[C@@H]4CCC[C@H](NC(=O)c5cc6cc(C(F)(F)P(=O)(O)O)ccc6s5)C(=O)N43)C2)n1 [Compound 811] ... > 7.00
4) O=C(N[C@H]1CCCC[C@H]2CC[C@@H](C(=O)N3C[C@H](c4cccnc4)CC34CC4)N2C1=O)c1cc2cc([C@@H](F)P(=O)(O)O)ccc2s1 (single isomer, unassigned) [Compound 909] ... 5.00 to 6.00

// batch mode: one pIC50 value per listed entry
1. N#C[C@@H]1[C@@H](c2ccccc2)CN(C(=O)[C@@H]2CC[C@@H]3C[C@@H](N4CCC4)CC[C@H](NC(=O)c4cc5cc([C@@H](F)P(=O)(O)O)ccc5s4)C(=O)N32)C12CC2 (single isomer, unassigned) [Compound 935]
2. COCCNC1(c2ccccn2)CN(C(=O)[C@@H]2CC[C@@H]3CCCC[C@H](NC(=O)c4cc5cc(C(F)P(=O)(O)O)ccc5s4)C(=O)N32)C1 (stereo partly shown) [Compound 568]

Result string:
5.00 to 6.00
> 7.00

Below are 4 compounds. Give each one its pIC50.
1. COc1ccncc1C1CN(C(=O)[C@@H]2CC[C@@H]3C[C@H](C(C)C)CC[C@H](NC(=O)c4cc5cc(C(F)P(=O)(O)O)ccc5s4)C(=O)N32)C1 (stereo partly shown) [Compound 211]
2. O=C(N[C@H]1CCC[C@H]2CC[C@@H](C(=O)N3CC(c4cccnc4)C3)N2C1=O)c1cc2cc(CP(=O)(O)O)ncc2s1 [Compound 574]
3. N#C[C@H]1[C@H](c2ccccc2)CN(C(=O)[C@@H]2CC[C@@H]3C[C@@H](N4CCC4)CC[C@H](NC(=O)c4cc5cc([C@@H](F)P(=O)(O)O)ccc5s4)C(=O)N32)C12CC2 (single isomer, unassigned) [Compound 937]
4. CCc1ccncc1C1CN(C(=O)[C@@H]2CC[C@@H]3CCC[C@H](NC(=O)c4cc5cc(C(F)P(=O)(O)O)ccc5s4)C(=O)N32)C1 (stereo partly shown) [Compound 205]

Result string:
1: > 7.00; 2: 5.00 to 6.00; 3: 5.00 to 6.00; 4: > 7.00

* * *

- targetOrSystem: pY641-STAT6 in PBMC (Homo sapiens, UniProt P42226)
- Construct: Cryopreserved Peripheral Blood Mononuclear Cells (PBMC) are from AllCells; host or cells: cryopreserved PBMC
- Sequence (P42226 whole entry): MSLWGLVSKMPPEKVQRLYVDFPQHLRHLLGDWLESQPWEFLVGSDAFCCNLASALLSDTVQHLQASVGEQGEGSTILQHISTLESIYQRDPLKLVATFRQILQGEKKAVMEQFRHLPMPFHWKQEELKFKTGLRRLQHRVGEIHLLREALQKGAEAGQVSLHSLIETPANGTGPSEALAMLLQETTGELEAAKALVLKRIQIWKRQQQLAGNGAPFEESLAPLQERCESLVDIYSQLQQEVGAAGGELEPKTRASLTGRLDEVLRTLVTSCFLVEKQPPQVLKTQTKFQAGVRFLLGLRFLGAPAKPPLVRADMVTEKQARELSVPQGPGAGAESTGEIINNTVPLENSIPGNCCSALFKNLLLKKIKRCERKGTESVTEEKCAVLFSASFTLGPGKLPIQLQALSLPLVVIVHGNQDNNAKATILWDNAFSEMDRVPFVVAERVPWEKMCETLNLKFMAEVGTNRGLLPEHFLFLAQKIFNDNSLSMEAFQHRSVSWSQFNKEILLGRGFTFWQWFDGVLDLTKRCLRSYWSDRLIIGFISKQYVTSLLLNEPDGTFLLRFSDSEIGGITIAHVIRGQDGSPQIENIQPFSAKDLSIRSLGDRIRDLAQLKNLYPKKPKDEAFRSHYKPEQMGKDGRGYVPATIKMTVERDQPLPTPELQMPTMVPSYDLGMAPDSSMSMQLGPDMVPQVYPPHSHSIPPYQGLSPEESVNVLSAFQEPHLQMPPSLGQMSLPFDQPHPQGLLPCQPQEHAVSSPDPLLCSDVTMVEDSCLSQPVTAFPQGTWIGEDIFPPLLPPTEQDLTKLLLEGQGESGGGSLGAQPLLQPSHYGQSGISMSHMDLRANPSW
- testProtocol: MSD-pSTAT-PBMC Assay (pSTAT6, IL-4 stimulated)
- Assay type: cell-based
- conditionLabel: STAT6, PBMC, compound 3 hrs, then 1 ng/mL IL-4 for 10 min; Table 115
pIC50: −log10 of the molar value.
Would you kindly list pIC50 for each of these compounds?

State recorded pIC50 for all listed compounds.
1. CCCOC(=O)[C@H](C)NP(=O)(Oc1ccccc1)[C@@H](F)c1ccc2sc(C(=O)N[C@H]3CCCC[C@H]4CC[C@@H](C(=O)N5C(=O)N(c6ccc(C(F)(F)F)nc6)C(=O)C56CC6)N4C3=O)cc2c1 (some centres unmarked) [Compound 327]
2. CCCOC(=O)[C@H](C)NP(=O)(Oc1ccccc1)C(F)c1ccc2ccc(C(=O)N[C@H]3CCCC[C@H]4CC[C@@H](C(=O)N5C[C@@H](c6ccn(C)c(=O)c6)CC56CC6)N4C3=O)cc2c1 (some centres unmarked) [Compound 441]

Result string:
1. < 5.52
2. > 7.00
